Measured IC50, listed per entry.
Protein target, amino acids: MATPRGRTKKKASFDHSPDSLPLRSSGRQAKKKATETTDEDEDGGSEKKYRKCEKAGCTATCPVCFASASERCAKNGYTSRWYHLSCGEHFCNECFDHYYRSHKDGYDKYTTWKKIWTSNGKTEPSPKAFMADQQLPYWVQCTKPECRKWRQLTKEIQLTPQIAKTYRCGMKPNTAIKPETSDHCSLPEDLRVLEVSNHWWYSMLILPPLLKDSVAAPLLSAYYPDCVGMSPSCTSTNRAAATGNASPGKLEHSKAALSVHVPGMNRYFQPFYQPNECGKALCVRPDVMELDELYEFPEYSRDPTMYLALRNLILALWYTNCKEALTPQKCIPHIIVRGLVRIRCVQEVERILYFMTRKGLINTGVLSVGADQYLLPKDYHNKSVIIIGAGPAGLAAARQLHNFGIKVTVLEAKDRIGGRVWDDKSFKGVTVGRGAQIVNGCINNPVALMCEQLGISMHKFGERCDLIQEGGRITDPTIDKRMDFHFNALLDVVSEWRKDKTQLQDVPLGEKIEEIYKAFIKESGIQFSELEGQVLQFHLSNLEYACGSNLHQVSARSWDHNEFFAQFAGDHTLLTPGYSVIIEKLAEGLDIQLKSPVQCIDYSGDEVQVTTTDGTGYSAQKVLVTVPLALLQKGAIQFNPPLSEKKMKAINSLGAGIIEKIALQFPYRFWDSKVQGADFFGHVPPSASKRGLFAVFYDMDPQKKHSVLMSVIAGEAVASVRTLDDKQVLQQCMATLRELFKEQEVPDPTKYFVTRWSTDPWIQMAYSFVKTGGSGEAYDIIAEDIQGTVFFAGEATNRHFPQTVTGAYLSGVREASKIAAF
Enter your answer as a number in µM; do not include the unit.

>  <compound>
O=C(N[C@@H](CCCCNC1CC1c1ccccc1)C(=O)NCc1ccc(Cl)cc1)c1ccc(-c2ccccc2)cc1 (stereo partly drawn)

>  <measurement.name>
IC50

>  <observed>
250

$$$$

q: Given the compound O=C(N[C@@H](CCCCNC1CC1c1ccccc1)C(=O)NCc1ccccc1)c1ccc(-c2ccccc2)cc1 (stereo partly drawn) , what is its reported IC50?
a: 230
